Please provide measured AUC(0-t) at 24 h for the entries that follow.
# ASSAY_NAME: AUC (0 to t) in male ICR mouse at 10 mg/kg, po measured after 24 hrs by LC-MS/MS analysis
# Format: ADME, organism-based
# EXPERIMENTAL_SETUP: in vivo
Numbers only here, please. The scale is ng·h/mL.

The recorded AUC(0-t) at 24 h for entry COc1cc(C#N)ccc1C[Se]c1cccc(N2C=NN(Cc3nc4c(F)cc(C(=O)O)cc4n3C[C@@H]3CCO3)CC2)n1 equals 537

The recorded AUC(0-t) at 24 h for entry COc1cc(C(F)(F)F)ccc1C[Se]c1cccc(N2C=NN(Cc3nc4c(F)cc(C(=O)O)cc4n3C[C@@H]3CCO3)CC2)n1 equals 582

The recorded AUC(0-t) at 24 h for entry COc1cc(C#N)ccc1C[Se]c1cccc(C2CCN(Cc3nc4ccc(C(=O)O)cc4n3C[C@@H]3CCO3)CC2)n1 equals 5540
